Experiment: Lipophilicity, logD of compound in 1-octanol and phosphate buffer at pH 7.4 by HPLC-UV analysis
Format: physicochemical
Conditions: 1-octanol/phosphate buffer
measured-attribute: logD

# compound, logD
rows = [
    ("O=c1c(O)c(-c2ccc(O)c(O)c2)oc2cc(O)cc(O)c12 [QUERCETIN]", 2.5),
    ("COc1cc2c(N3CCCCC3)nc(NCc3ccc(F)cc3)nc2cc1OC1CCCC1", 2.64),
    ("COc1cc2c(N3CCCCC3)nc(NCc3ccccc3)nc2cc1OC1CCCC1", 2.59),
    ("COc1cc2c(N3CCCCC3)nc(NCC3CCCCC3)nc2cc1OC1CCCC1", 3.34),
    ("COc1cc2c(N3CCOCC3)nc(NCc3ccc(F)cc3)nc2cc1OC1CCCC1", 3.22),
    ("COc1cc2c(N3CCCCC3)nc(NCc3ccc(Br)cc3)nc2cc1OC1CCCC1", 2.6),
    ("COc1cc2c(N3CCCCC3)nc(NCc3ccc(Cl)cc3)nc2cc1OC1CCCC1", 3.14),
    ("COc1cc2c(N3CCCCC3)nc(NCc3ccc(F)cc3)nc2cc1OC1CCNC1 (stereo unspecified)", 2.37),
]

A. COc1ccc(CNc2nc(N3CCCCC3)c3cc(OC)c(OCc4ccccc4)cc3n2)cc1
B. COc1cc2c(N3CCCCC3)nc(NCc3ccc(C(C)(C)C)cc3)nc2cc1OC1CCCC1
### Prompt Sorting by logD in descending order, would A or B appear first? Selection: enter the item's label.
### Response B

a. COc1cc2c(N3CCCCC3)nc(N(C)C)nc2cc1OC1CCCC1
b. COc1cc2c(N3CCCCC3)nc(NC(=O)c3ccc(F)cc3)nc2cc1OC1CCCC1
### Prompt // task: argmin of logD over [ a , b ] API: response body contains the label of the selected item.
### Response a

Measured values drawn from ChEMBL document CHEMBL5512633 for this set.
